- Tested on: Enoyl-[acyl-carrier-protein] reductase [NADH] (Mycobacterium tuberculosis)
- Sequence (P9WGR1 whole entry): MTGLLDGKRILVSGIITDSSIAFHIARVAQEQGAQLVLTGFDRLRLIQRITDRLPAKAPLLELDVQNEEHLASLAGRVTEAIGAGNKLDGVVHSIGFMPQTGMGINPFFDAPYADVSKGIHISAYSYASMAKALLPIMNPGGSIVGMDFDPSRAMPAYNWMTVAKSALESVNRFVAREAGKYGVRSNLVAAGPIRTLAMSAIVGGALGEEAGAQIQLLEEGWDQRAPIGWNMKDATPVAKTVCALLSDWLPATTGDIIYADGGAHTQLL
Property: IC50 (µM)
I only need the number, in µM, no unit after it.

Value lookup for IC50; key = CCN(CC)c1ccc(/C=C2/SC(N3CCCCC3)=NC2=O)cc1
6.17

Value lookup for IC50; key = CCN(CC)c1ccc(NC(=O)c2ccccc2[N+](=O)[O-])cc1
4.37

Value lookup for IC50; key = COc1ccc(OC)c(/C=N/NC2=CS(=O)(=O)c3ccccc32)c1
5.13

Value lookup for IC50; key = COc1cc(Cl)cc(/C=C2/SC(c3ccccc3)=NC2=O)c1O
10.5

Value lookup for IC50; key = O=[N+]([O-])c1cc(/N=C/c2ccc(Cl)cc2Cl)ccc1Cl
4.68

Value lookup for IC50; key = COc1ccc(C(=O)Nc2cc(Cl)ccc2Cl)cc1[N+](=O)[O-]
13.8

Value lookup for IC50; key = COc1ccc(/C=C2/SC(N3CCC(C)CC3)=NC2=O)cc1OC
10.7

====

IC50 values by entry
- Tested on: Enoyl-[acyl-carrier-protein] reductase [NADH] (Mycobacterium tuberculosis, UniProt P9WGR1)
I only need the number, in µM, no unit after it.

Value lookup for IC50; key = Cc1ccc(C(=O)Nc2ccc(Cl)cc2Cl)cc1[N+](=O)[O-]
8.71

Continuing:
Value lookup for IC50; key = COC(=O)c1c(NC(=O)c2ccccc2[N+](=O)[O-])sc2c1CCC2
1.82

Value lookup for IC50; key = Cc1ccc(OC(=O)c2ccccc2[N+](=O)[O-])c(Br)c1
9.55

Value lookup for IC50; key = O=C(Nc1ccc(Cl)c(Cl)c1)c1ccc(Cl)c([N+](=O)[O-])c1
52.5

Value lookup for IC50; key = COc1ccc(Cl)cc1NC(=O)c1ccc(Cl)c([N+](=O)[O-])c1
4.07

Value lookup for IC50; key = Cc1ccc(NC(=O)c2ccccc2[N+](=O)[O-])c(C)c1
10.5

====

Observed pIC50, system Enoyl-[acyl-carrier-protein] reductase [NADH] (Mycobacterium tuberculosis, UniProt P9WGR1).
Quick note: pIC50 values are minus log10 of concentrations in mol/L.

For Enoyl-[acyl-carrier-protein] reductase [NADH] (Mycobacterium tuberculosis, UniProt P9WGR1), provide pIC50 of Cc1ccc(NC(=O)c2sc3ccccc3c2Cl)cc1[N+](=O)[O-] please.
5.67

For Enoyl-[acyl-carrier-protein] reductase [NADH] (Mycobacterium tuberculosis, UniProt P9WGR1), provide pIC50 of CCOc1ccc(/C=C2/SC(c3ccccc3)=NC2=O)cc1C please.
5.00

For Enoyl-[acyl-carrier-protein] reductase [NADH] (Mycobacterium tuberculosis, UniProt P9WGR1), provide pIC50 of CCOC(=O)C1=C(C)N/C(=C/c2cc(OC)ccc2OC)C1=O please.
5.44

For Enoyl-[acyl-carrier-protein] reductase [NADH] (Mycobacterium tuberculosis, UniProt P9WGR1), provide pIC50 of O=C(Nc1ccc(Cl)cc1Cl)c1ccccc1[N+](=O)[O-] please.
4.70

For Enoyl-[acyl-carrier-protein] reductase [NADH] (Mycobacterium tuberculosis, UniProt P9WGR1), provide pIC50 of COc1cc(Cl)ccc1NC(=O)c1ccc(C)c([N+](=O)[O-])c1 please.
5.30

Continuing:
For Enoyl-[acyl-carrier-protein] reductase [NADH] (Mycobacterium tuberculosis, UniProt P9WGR1), provide pIC50 of CCN(CC)c1ccc(/C=C2/N=C(c3ccccc3)OC2=O)cc1 please.
5.48

====

- Tested on: UniProtKB P9WGR1
- Sequence (P9WGR1 whole entry): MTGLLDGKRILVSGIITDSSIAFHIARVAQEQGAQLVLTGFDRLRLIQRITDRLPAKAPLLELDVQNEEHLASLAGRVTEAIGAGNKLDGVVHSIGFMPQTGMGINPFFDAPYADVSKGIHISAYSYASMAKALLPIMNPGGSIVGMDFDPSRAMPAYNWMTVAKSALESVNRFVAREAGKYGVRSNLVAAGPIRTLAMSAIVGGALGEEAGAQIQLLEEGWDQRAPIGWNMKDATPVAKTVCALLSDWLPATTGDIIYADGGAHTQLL
pIC50: −log10 of the molar value.
Returns class 1 if the recorded pIC50 is greater than or equal to 5, and class 0 otherwise.

Before answering, review these 6 worked examples.
Quick check, pIC50 >= 5? Cc1cc(Cl)ccc1OCC(=O)Nc1cccc([N+](=O)[O-])c1C
class 1

Quick check, pIC50 >= 5? O=C(Nc1cc(Cl)ccc1Cl)c1ccc(Cl)c([N+](=O)[O-])c1
class 0

Quick check, pIC50 >= 5? COc1ccc(Cl)cc1NC(=O)c1ccc(OC)c([N+](=O)[O-])c1
class 1

Quick check, pIC50 >= 5? COc1cc(NC(=O)c2ccc(C)cc2[N+](=O)[O-])cc(OC)c1
class 1

Quick check, pIC50 >= 5? O=C1N=C(Nc2cc(Cl)cc(Cl)c2)S/C1=C/c1ccco1
class 0

Quick check, pIC50 >= 5? COc1ccc(C(=O)Nc2cc(Cl)cc(Cl)c2)cc1[N+](=O)[O-]
class 1

Continuing:
Quick check, pIC50 >= 5? O=C(Nc1cc(Cl)cc(Cl)c1)c1ccccc1[N+](=O)[O-]
class 1

====

pIC50 values by entry
- Tested on: UniProt:P9WGR1
Quick note: pIC50 values are minus log10 of concentrations in mol/L.

Value lookup for pIC50; key = COc1ccc(/C=C2/SC(N3CCCC3)=NC2=O)cc1OC
5.14

Continuing:
Value lookup for pIC50; key = COc1ccc(/C=C2\SC(N3CCCCCC3)NC2=O)cc1OC (centres undefined)
4.96

Value lookup for pIC50; key = COc1ccc(/C=C2/SC(N3CCCCC3)=NC2=O)cc1OC
4.94

Value lookup for pIC50; key = O=C(Nc1cc(Cl)c(Cl)cc1Cl)c1ccccc1[N+](=O)[O-]
4.92
